src = PubChem BioAssay AID256

Tested on: CD2F1 mice, L1210 leukemia ip, survival T/C
Assay: NCI In Vivo Anticancer Drug Screen. Data for tumor model L1210 Leukemia (intraperitoneal) in CD2F1 (CDF1) mice
Details: endpoint: mean survival time; dose: 6.25 mg/kg/injection; schedule: Q01DX009 (ip); vehicle: saline; higher = longer survival
Inconclusive results and toxic doses are left out.
Measure Name: T/C

> print(dat)
                                   molecule            result
1  C=C(C)C(=O)O[C@H]1[C@H]2[C@H](OC(=O)[C@H]2C)[C@H](O)[C@@H](C)[C@@H]2C=CC(=O)[C@]21C   95 % of control
2  O=C1C(O)=C(c2ccccc2)C(=O)C(O)=C1c1ccccc1   95 % of control
3  COC(=O)C(Cl)(Cl)N=Nc1c(Cl)cc(Cl)c(C)c1Cl   93 % of control
4  Cc1c(CNc2ccc(C(=O)NC(CC(=O)O)C(=O)O)cc2)ccc2nc(N)nc(N)c12 (stereo not given)   92 % of control
5  OCCOCCN1CCN(CCCN2c3ccccc3Sc3ccc(C(F)(F)F)cc32)CC1  121 % of control
